Values from patent US20250361268A1

Target: T1, formyl peptide receptor 2 (FPR2) (UniProt P25090 1-351, limits assumed)
T1 sequence (looked up): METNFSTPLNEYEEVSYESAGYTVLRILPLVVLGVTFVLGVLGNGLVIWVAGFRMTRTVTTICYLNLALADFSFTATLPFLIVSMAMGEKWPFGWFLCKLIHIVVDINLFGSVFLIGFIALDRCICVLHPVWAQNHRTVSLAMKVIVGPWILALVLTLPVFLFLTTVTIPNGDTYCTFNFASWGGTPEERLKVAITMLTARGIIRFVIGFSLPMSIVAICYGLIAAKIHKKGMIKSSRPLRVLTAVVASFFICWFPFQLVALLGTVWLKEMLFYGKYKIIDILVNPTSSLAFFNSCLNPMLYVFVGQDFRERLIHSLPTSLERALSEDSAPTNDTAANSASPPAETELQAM
Assay: cell-based or functional assay
recordedMetric: EC50 for [Ca2+]

>>> recordedmeasurement("RWRYKVM (HELM PEPTIDE1{R.W.R.Y.K.V.[dM].[am]}$$$$V2.0; N-terminus assumed; SMILES CSCC[C@@H](NC(=O)[C@@H](NC(=O)[C@H](CCCCN)NC(=O)[C@H](Cc1ccc(O)cc1)NC(=O)[C@H](CCCNC(=N)N)NC(=O)[C@H](Cc1c[nH]c2ccccc12)NC(=O)[C@@H](N)CCCNC(=N)N)C(C)C)C(N)=O) [peptide of SEQ ID NO 1]")
"< 10 nM"
>>> recordedmeasurement("HMRYKPM (HELM PEPTIDE1{[ac].H.M.R.Y.K.P.[dM].[am]}$$$$V2.0; SMILES CSCC[C@H](NC(=O)[C@H](Cc1c[nH]cn1)NC(C)=O)C(=O)N[C@@H](CCCNC(=N)N)C(=O)N[C@@H](Cc1ccc(O)cc1)C(=O)N[C@@H](CCCCN)C(=O)N1CCC[C@H]1C(=O)N[C@H](CCSC)C(N)=O) [peptide of SEQ ID NO 59]")
"< 10 nM"
>>> recordedmeasurement("MKYWPM (HELM PEPTIDE1{[ac].M.K.Y.W.P.[dM].[am]}$$$$V2.0; SMILES CSCC[C@H](NC(C)=O)C(=O)N[C@@H](CCCCN)C(=O)N[C@@H](Cc1ccc(O)cc1)C(=O)N[C@@H](Cc1c[nH]c2ccccc12)C(=O)N1CCC[C@H]1C(=O)N[C@H](CCSC)C(N)=O) [peptide of SEQ ID NO 114]")
"< 10 nM"
